Values compiled from paper PMC11650737.

- protocol_details: Pharmacokinetic study in mice
- Format: in vivo, mice (male C57BL/6J)
- experimental_setup: male, C57BL/6J, mouse, whole blood, ip, 10 mg/kg, blood
readout: Tmax (h)

1. Cc1ncsc1-c1ccc(CNC(=O)[C@@H]2C[C@@H](O)CN2C(=O)[C@@H](NC(=O)CCCC(=O)NCCCOc2ccc(-c3cc(C(F)(F)F)nn3C)c(O)c2-c2cc(C(F)(F)F)cc(C(F)(F)F)c2)C(C)(C)C)cc1 :: 2
2. Cc1ncsc1-c1ccc(CNC(=O)[C@@H]2C[C@@H](O)CN2C(=O)[C@@H](NC(=O)COCCOCC(=O)NCCCOc2ccc(-c3cc(C(F)(F)F)nn3C)c(O)c2-c2cc(C(F)(F)F)cc(C(F)(F)F)c2)C(C)(C)C)cc1 :: 2
3. Cc1ncsc1-c1ccc(CNC(=O)[C@@H]2C[C@@H](O)CN2C(=O)[C@@H](NC(=O)CCC(=O)NCCCOc2ccc(-c3cc(C(F)(F)F)nn3C)c(O)c2-c2cc(C(F)(F)F)cc(C(F)(F)F)c2)C(C)(C)C)cc1 :: 2

###

- Tested on: PC3 cells
- protocol_details: Cell viability (MTT) assay, PC3
- Format: cell-based, human
- experimental_setup: Homo sapiens, PC-3, 72 h, read-out: IC50 (antiproliferative effect)
pIC50: −log10 of the molar value.
readout: pIC50

Some solved cases for reference:
1. Cc1ncsc1-c1ccc(CNC(=O)[C@@H]2C[C@@H](O)CN2C(=O)[C@@H](NC(=O)COCCOCC(=O)NCCCOc2ccc(-c3cc(C(F)(F)F)nn3C)c(O)c2-c2cc(C(F)(F)F)cc(C(F)(F)F)c2)C(C)(C)C)cc1 :: 4.60
2. Cc1ncsc1-c1ccc(CNC(=O)[C@@H]2C[C@@H](O)CN2C(=O)[C@@H](NC(=O)CCCC(=O)NCCCOc2ccc(-c3cc(C(F)(F)F)nn3C)c(O)c2-c2cc(C(F)(F)F)cc(C(F)(F)F)c2)C(C)(C)C)cc1 :: 4.89

[1] Cc1ncsc1-c1ccc(CNC(=O)[C@@H]2C[C@@H](O)CN2C(=O)[C@@H](NC(=O)CCC(=O)NCCCOc2ccc(-c3cc(C(F)(F)F)nn3C)c(O)c2-c2cc(C(F)(F)F)cc(C(F)(F)F)c2)C(C)(C)C)cc1
[2] Cn1nc(C(F)(F)F)cc1-c1ccc(OCc2ccc(Cl)cc2)c(-c2cc(C(F)(F)F)cc(C(F)(F)F)c2)c1O [MYCi361, reference compound]
Could you determine which record has the numerically smaller pIC50? Candidates: 1 and 2 Output the label that corresponds to your choice.
1

###

- system_under_test: c-MYC (Homo sapiens)
- Construct: endogenous in cells; host or cells: PC3
- Sequence (P01106 whole entry): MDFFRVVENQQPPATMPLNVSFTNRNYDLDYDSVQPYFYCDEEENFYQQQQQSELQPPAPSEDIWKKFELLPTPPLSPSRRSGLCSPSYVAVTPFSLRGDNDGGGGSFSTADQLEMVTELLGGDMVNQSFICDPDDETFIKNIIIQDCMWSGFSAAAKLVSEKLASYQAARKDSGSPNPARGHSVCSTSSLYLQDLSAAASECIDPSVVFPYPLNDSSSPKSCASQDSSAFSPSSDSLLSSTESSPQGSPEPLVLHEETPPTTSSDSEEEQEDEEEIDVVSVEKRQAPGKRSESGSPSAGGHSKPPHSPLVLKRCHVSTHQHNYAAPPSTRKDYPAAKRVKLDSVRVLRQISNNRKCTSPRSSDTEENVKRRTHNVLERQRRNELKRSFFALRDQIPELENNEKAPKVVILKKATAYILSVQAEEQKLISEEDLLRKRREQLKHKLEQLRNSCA
- protocol_details: MYC degradation in PC3 cells, Western blot
- Type: cell-based
- experimental_setup: 10 μΜ, 24 h
readout: MYC degradation (MYC levels by Western blot)

1. Cc1ncsc1-c1ccc(CNC(=O)[C@@H]2C[C@@H](O)CN2C(=O)[C@@H](NC(=O)COCCOCC(=O)NCCCOc2ccc(-c3cc(C(F)(F)F)nn3C)c(O)c2-c2cc(C(F)(F)F)cc(C(F)(F)F)c2)C(C)(C)C)cc1 [CSI135] :: No particular effect
2. Cc1ncsc1-c1ccc(CNC(=O)[C@@H]2C[C@@H](O)CN2C(=O)[C@@H](NC(=O)CNC(=O)CCC(=O)NCCCOc2ccc(-c3cc(C(F)(F)F)nn3C)c(O)c2-c2cc(C(F)(F)F)cc(C(F)(F)F)c2)C(C)(C)C)cc1 [CSI95] :: No particular effect

###

- System: SKBR3 cells
- protocol_details: Cell viability (MTT) assay, SKBR3
- Format: cell-based, human
- experimental_setup: Homo sapiens, SK-BR-3, 72 h, read-out: IC50 (antiproliferative effect)
readout: IC50 (µM)

1) Cc1ncsc1-c1ccc(CNC(=O)[C@@H]2C[C@@H](O)CN2C(=O)[C@@H](NC(=O)CCC(=O)NCCCOc2ccc(-c3cc(C(F)(F)F)nn3C)c(O)c2-c2cc(C(F)(F)F)cc(C(F)(F)F)c2)C(C)(C)C)cc1 [CSI86] :: 15
2) Cc1ncsc1-c1ccc(CNC(=O)[C@@H]2C[C@@H](O)CN2C(=O)[C@@H](NC(=O)CCCC(=O)NCCCOc2ccc(-c3cc(C(F)(F)F)nn3C)c(O)c2-c2cc(C(F)(F)F)cc(C(F)(F)F)c2)C(C)(C)C)cc1 [CSI107] :: 14
3) Cn1nc(C(F)(F)F)cc1-c1ccc(OCc2ccc(Cl)cc2)c(-c2cc(C(F)(F)F)cc(C(F)(F)F)c2)c1O [MYCi361, reference compound] :: 11

###

- protocol_details: Pharmacokinetic study in mice
- Assay type: in vivo, mice (male C57BL/6J)
- experimental_setup: male, C57BL/6J, mouse, whole blood, oral gavage (PO), 10 mg/kg, blood
readout: Cmax

Quick one: Cmax of Cc1ncsc1-c1ccc(CNC(=O)[C@@H]2C[C@@H](O)CN2C(=O)[C@@H](NC(=O)CCC(=O)NCCCOc2ccc(-c3cc(C(F)(F)F)nn3C)c(O)c2-c2cc(C(F)(F)F)cc(C(F)(F)F)c2)C(C)(C)C)cc1 [CSI86] ?
< 100 ng/mL
